Values from ChEMBL document CHEMBL5576073

Experiment: Aqueous solubility of compound in PBS at pH 7.2
Type: physicochemical
# log10 solubility values compiled below
measure name: log10 solubility (log10 of the value in µM)

[
  {
    "compound": "OC1(C(F)(F)F)c2ccccc2-c2c(-c3cccnc3)cccc21 (racemic)",
    "log10 solubility": -0.42
  },
  {
    "compound": "OC1(C(F)(F)F)c2ccccc2-c2c(-c3cnco3)cccc21 (racemic)",
    "log10 solubility": 1.23
  },
  {
    "compound": "OC1(C(F)(F)F)c2ccccc2-c2ccccc21",
    "log10 solubility": 1.94
  },
  {
    "compound": "OCCCCOc1ccc2c(c1)C(O)(C(F)(F)F)c1ccccc1-2 (racemic)",
    "log10 solubility": 1.93
  },
  {
    "compound": "OCCn1cc(-c2cccc3c2-c2ccccc2C3(O)C(F)(F)F)cn1 (racemic)",
    "log10 solubility": 1.96
  }
]
